Known IC50 of a selection of molecules
- Target: RORγ (Homo sapiens)
- Sequence (P51449 269-508 limits assumed): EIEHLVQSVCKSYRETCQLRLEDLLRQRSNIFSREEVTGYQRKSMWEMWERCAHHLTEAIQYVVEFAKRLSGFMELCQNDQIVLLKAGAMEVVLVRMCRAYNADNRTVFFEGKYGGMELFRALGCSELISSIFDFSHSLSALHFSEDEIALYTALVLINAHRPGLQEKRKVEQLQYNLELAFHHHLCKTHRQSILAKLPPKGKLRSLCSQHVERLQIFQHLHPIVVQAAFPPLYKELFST
- Procedure Details: RORγ GAL4 reporter gene assay
- Reported Conditions: mean pIC50, inhibition of RORγ (GAL4-RORγ-LBD) in 293FT cells, luciferase readout, overnight incubation
Observable: IC50

>>> measured("O=C(Nc1ccc(C(O)(C(F)(F)F)C(F)(F)F)cc1)C(O)c1ccc(S(=O)(=O)CC2CC2)cc1 (stereo not shown) [Example 114]")
"≤ 100 nM"
>>> measured("CCCOC(c1ccc(NC(=O)Cc2ccc(S(=O)(=O)CC3CC3)cc2)cc1)(C(F)(F)F)C(F)(F)F [Example 60]")
"≤ 10 nM"
>>> measured("O=C(Cc1ccc(S(=O)(=O)CC2CC2)cc1)Nc1ccc(C(OCCC2CC2)(C(F)(F)F)C(F)(F)F)cc1 [Example 58]")
"≤ 1000 nM"
>>> measured("CC(C)CC(O)(c1ccc(NC(=O)Cc2ccc(S(=O)(=O)NC3CC3)cc2)cc1)C(F)(F)F (stereo not shown) [Example 76]")
"≤ 100 nM"

Measured values drawn from patent US9738600B2 for this set.
